Every entry's value here was drawn from paper PMC8699473.

test.name: Long-term stability in spiked pooled human plasma
assay.setup: validation standard ULOV
metric.name: Long-term stability, 2 month, -80°C Accuracy [%] (%)
Answers are plain numbers, in %.

Recorded Long-term stability, 2 month, -80°C Accuracy [%], per entry:
sample.smiles | endpoint.result
Cc1cc(Nc2ncc(Cl)c(Nc3ccccc3S(=O)(=O)C(C)C)n2)c(OC(C)C)cc1C1CCNCC1 | 100.5
CCCS(=O)(=O)Nc1ccc(F)c(C(=O)c2c[nH]c3ncc(-c4ccc(Cl)cc4)cc23)c1F | 112.7
Cc1[nH]c2ccccc2c1CCNCc1ccc(/C=C/C(=O)NO)cc1 | 99.4
CO[C@@H]1[C@H](N(C)C(=O)c2ccccc2)C[C@H]2O[C@]1(C)n1c3ccccc3c3c4c(c5c6ccccc6n2c5c31)C(=O)NC4 | 111.4
CCN(CC)CCNC(=O)c1c(C)[nH]c(/C=C2\C(=O)Nc3ccc(F)cc32)c1C | 108.8

Hi team, please reply with Long-term stability, 2 month, -80°C Accuracy [%] for each item in this list.
1. COc1cc2ncnc(Nc3ccc(F)c(Cl)c3)c2cc1OCCCN1CCOCC1
2. C[C@]12CC[C@H](O)CC1=CC[C@@H]1[C@@H]2CC[C@]2(C)C(c3cccnc3)=CC[C@@H]12
3. CCOc1cc2ncc(C#N)c(Nc3ccc(OCc4ccccn4)c(Cl)c3)c2cc1NC(=O)/C=C/CN(C)C

// result
1. 101.3
2. 103.2
3. 88.3

Hi team, please reply with Long-term stability, 2 month, -80°C Accuracy [%] for each item in this list.
1. Cc1ccc(NC(=O)c2ccc(CN3CCN(C)CC3)cc2)cc1Nc1nccc(-c2cccnc2)n1
2. COc1cc2c(Nc3ccc(Br)cc3F)ncnc2cc1OCC1CCN(C)CC1

// result
[89.1, 98.6]

====

test.name: Short-term stability in spiked pooled human plasma (bench-top, 4 °C, 56 °C)
assay.setup: validation standard ULOV
metric.name: Short-time stability (24h, RT, without daylight) Accuracy [%] (%)
Numbers only, in %.

compound | endpoint.result
COC(=O)c1ccc2c(c1)NC(=O)/C2=C(\Nc1ccc(N(C)C(=O)CN2CCN(C)CC2)cc1)c1ccccc1 | 102.1
O=C(c1ccc(F)c(F)c1Nc1ccc(I)cc1F)N1CC(O)([C@@H]2CCCCN2)C1 | 100.3
CNC(=O)c1cc(Oc2ccc(NC(=O)Nc3ccc(Cl)c(C(F)(F)F)c3)c(F)c2)ccn1 | 87.8
O=C1CN2Cc3c(ccc(Cl)c3Cl)N=C2N1 [Anagrelide] | 94.1

Hi team, please reply with Short-time stability (24h, RT, without daylight) Accuracy [%] for each item in this list.
1. Cc1c(C(=O)Nc2ccc(N3C[C@@H](C)O[C@@H](C)C3)nc2)cccc1-c1ccc(OC(F)(F)F)cc1
2. COc1cc2ncnc(Nc3ccc(F)c(Cl)c3)c2cc1OCCCN1CCOCC1
3. COc1cc(N2CCC(N3CCN(C)CC3)CC2)ccc1Nc1ncc(Cl)c(Nc2ccccc2P(C)(C)=O)n1
4. Cc1ccc(C(=O)Nc2ccc(CN3CCN(C)CC3)c(C(F)(F)F)c2)cc1C#Cc1cnc2cccnn12

// result
1. 91.4
2. 87.7
3. 90.3
4. 98.9

====

Would you mind telling me the reported Long-term stability, 1 month, -20°C Accuracy [%] of each entry?
test.name: Long-term stability in spiked pooled human plasma
assay.setup: validation standard LLOV
One number for each entry, in %.

Recorded Long-term stability, 1 month, -20°C Accuracy [%], per entry:
molecule | reading.unit | endpoint.result
O=c1[nH]c(=O)n([C@H]2C[C@H](O)[C@@H](CO)O2)cc1C(F)(F)F | % | 97.0
CCOc1cc2ncc(C#N)c(Nc3ccc(OCc4ccccn4)c(Cl)c3)c2cc1NC(=O)/C=C/CN(C)C | % | 66.9
COc1cc2nccc(Oc3ccc(NC(=O)Nc4cc(C)on4)c(Cl)c3)c2cc1OC | % | 99.8

Hi team, please reply with Long-term stability, 1 month, -20°C Accuracy [%] for each item in this list.
1. CC(=O)Nc1cccc(-n2c(=O)n(C3CC3)c(=O)c3c(Nc4ccc(I)cc4F)n(C)c(=O)c(C)c32)c1
2. CNC(=O)c1ccc(N2C(=S)N(c3ccc(C#N)c(C(F)(F)F)c3)C(=O)C2(C)C)cc1F [Enzalutamide]
3. Nc1cccc2c1CN(C1CCC(=O)NC1=O)C2=O (stereo not shown) [Lenalidomide]

// result
1: 111.6; 2: 92.6; 3: 104.5

====

test.name: Autosampler stability of ready for injection samples
Format: physicochemical, human
assay.setup: validation standard 2xLLOV
metric.name: Autosampler (72h, 4°C) Accuracy [%] (%)
Numbers only, in %.

molecule | metric.name | endpoint.result
Nc1cccc2c1C(=O)N(C1CCC(=O)NC1=O)C2=O (stereo not shown) [Pomalidomide] | Autosampler (72h, 4°C) Accuracy [%] | 103.5
COc1cc2nccc(Oc3ccc(NC(=O)Nc4cc(C)on4)c(Cl)c3)c2cc1OC | Autosampler (72h, 4°C) Accuracy [%] | 102.7
Cc1cc(Nc2ncc(Cl)c(Nc3ccccc3S(=O)(=O)C(C)C)n2)c(OC(C)C)cc1C1CCNCC1 | Autosampler (72h, 4°C) Accuracy [%] | 100.1

Hi team, please reply with Autosampler (72h, 4°C) Accuracy [%] for each item in this list.
1. CS(=O)(=O)c1ccc(C(=O)Nc2ccc(Cl)c(-c3ccccn3)c2)c(Cl)c1
2. CCOc1cc2ncc(C#N)c(Nc3ccc(OCc4ccccn4)c(Cl)c3)c2cc1NC(=O)/C=C/CN(C)C
3. O=C(Nc1cnn2ccc(N3CCC[C@@H]3c3cc(F)ccc3F)nc12)N1CC[C@H](O)C1
4. CC(=O)Nc1cccc(-n2c(=O)n(C3CC3)c(=O)c3c(Nc4ccc(I)cc4F)n(C)c(=O)c(C)c32)c1
5. CNC(=O)c1ccccc1Sc1ccc2c(/C=C/c3ccccn3)n[nH]c2c1
6. CNCc1ccc(-c2[nH]c3cc(F)cc4c3c2CCNC4=O)cc1

// result
1. 109.2
2. 100.1
3. 100.3
4. 101.8
5. 104.9
6. 96.4

Entry `CC(C)(C)c1nc(-c2cccc(NS(=O)(=O)c3c(F)cccc3F)c2F)c(-c2ccnc(N)n2)s1` , Autosampler (72h, 4°C) Accuracy [%] reported as 99.3

====

Would you mind telling me the reported Autosampler (24h, 4°C) Accuracy [%] of each entry?
test.name: Autosampler stability of ready for injection samples
Type: physicochemical, human
assay.setup: validation standard ULOV
Give bare numbers, in %.

sample.smiles | Autosampler (24h, 4°C) Accuracy [%] (%)
N#CC[C@H](C1CCCC1)n1cc(-c2ncnc3[nH]ccc23)cn1 | 100.1
C=CC(=O)Nc1cc(Nc2nccc(-c3cn(C)c4ccccc34)n2)c(OC)cc1N(C)CCN(C)C | 98.4
CCN1CCN(Cc2ccc(Nc3ncc(F)c(-c4cc(F)c5nc(C)n(C(C)C)c5c4)n3)nc2)CC1 | 102.6

Let us move to another entry and its Autosampler (24h, 4°C) Accuracy [%].
Entry `Cc1ccc(C(=O)Nc2ccc(CN3CCN(C)CC3)c(C(F)(F)F)c2)cc1C#Cc1cnc2cccnn12` , Autosampler (24h, 4°C) Accuracy [%] reported as 101.9

====

test.name: Short-term stability in spiked pooled human plasma (bench-top, 4 °C, 56 °C)
assay.setup: validation standard MOV
# strict inequality: Short-time stability (1h, 56°C) Accuracy [%] < 50% yields Criterion met, everything else yields Criterion not met

compound | assigned.category
COc1cc2nccc(Oc3ccc(NC(=O)NC4CC4)c(Cl)c3)c2cc1C(N)=O | Criterion met

// query Does the reported Short-time stability (1h, 56°C) Accuracy [%] of `C[C@]12CC[C@H](O)CC1=CC[C@@H]1[C@@H]2CC[C@]2(C)C(c3cccnc3)=CC[C@@H]12` stay below 50%?
// result Criterion met

// query Does the reported Short-time stability (1h, 56°C) Accuracy [%] of `CCN1CCN(Cc2ccc(Nc3ncc(F)c(-c4cc(F)c5nc(C)n(C(C)C)c5c4)n3)nc2)CC1` stay below 50%?
// result Criterion met

====

test.name: Short-term stability in spiked pooled human plasma (bench-top, 4 °C, 56 °C)
assay.setup: validation standard ULOV
metric.name: Short-time stability (24h, RT, with daylight) Accuracy [%] (%)
One number for each entry, in %.

Recorded Short-time stability (24h, RT, with daylight) Accuracy [%], per entry:
molecule | endpoint.result
O=C(c1ccc(F)c(F)c1Nc1ccc(I)cc1F)N1CC(O)([C@@H]2CCCCN2)C1 | 103.8
Nc1cccc2c1CN(C1CCC(=O)NC1=O)C2=O (centres unmarked) [Lenalidomide] | 51.9

Hi team, please reply with Short-time stability (24h, RT, with daylight) Accuracy [%] for each item in this list.
1. Cn1cnc2c(F)c(Nc3ccc(Br)cc3F)c(C(=O)NOCCO)cc21
2. C[C@@H](Oc1cc(-c2cnn(C3CCNCC3)c2)cnc1N)c1c(Cl)ccc(F)c1Cl
3. COc1cc2nccc(Oc3ccc(NC(=O)NC4CC4)c(Cl)c3)c2cc1C(N)=O
4. O=C1CCC(N2C(=O)c3ccccc3C2=O)C(=O)N1 (centres unmarked) [Thalidomide]
5. CCC1=C[C@@H]2CN(C1)Cc1c([nH]c3ccccc13)[C@@](C(=O)OC)(c1cc3c(cc1OC)N(C)[C@H]1[C@@](O)(C(=O)OC)[C@H](OC(C)=O)[C@]4(CC)C=CCN5CC[C@]31[C@@H]54)C2
6. CNC(=O)c1ccccc1Sc1ccc2c(/C=C/c3ccccn3)n[nH]c2c1

// result
1. 101.8
2. 85.2
3. 102.7
4. 1.7
5. 62.0
6. 123.3
